# Tested on: Leishmania donovani
# test_protocol: Antileishmanial activity against amastigote stage of Leishmania donovani MHOM/IN/80/Dd8 harboring luciferase gene infected in mouse J774 cells assessed as parasite growth inhibition at 50 uM incubated for 72 hrs by Steady-Glo reagent based luciferase assay
# Assay type: functional
# assay_conditions: MHOM/IN/80/Dd8, J774
measured_parameter: inhibition at 50 µM (%)
Answer with a number only, understood to be in %.

If you can, please state the reported inhibition at 50 µM value of Cc1ccc(-c2cc(N3CCN(c4ccccc4O)CC3)c(C#N)c(=O)o2)cc1 .
83.2

I am curious: what inhibition at 50 µM value has been reported for N#Cc1c(N2CCN(c3ccccc3O)CC2)cc(-c2cccs2)oc1=O ?
89.3

Need inhibition at 50 µM of N#Cc1c(N2CCN(c3ccccc3O)CC2)c2c(oc1=O)-c1ccccc1CC2 , thanks.
64.8

Need inhibition at 50 µM, item N#Cc1c(N2CCN(c3cccc(Cl)c3)CC2)cc(-c2ccccc2)oc1=O
72.1

Consider the compound shown here: N#Cc1c(N2CCN(c3ccccc3O)CC2)c2c(oc1=O)-c1ccccc1C2 What is its recorded inhibition at 50 µM?
60

Looking for the measured inhibition at 50 µM of CCCCCCCCCCCCCCCCOP(=O)([O-])OCC[N+](C)(C)C [MILTEFOSINE] , can you help?
95.3

Any idea what its inhibition at 50 µM is? The compound is N#Cc1c(N2CCN(c3ccccc3O)CC2)cc(-c2ccc(Br)cc2)c2c1CCSC2
83.3

Requested field: inhibition at 50 µM. Item: COc1ccccc1N1CCN(c2cc(-c3ccc(Br)cc3)oc(=O)c2C#N)CC1
58.3

What value of inhibition at 50 µM has been recorded for this entry: COc1ccc(-c2cc(N3CCN(c4ccccc4Cl)CC3)c(C#N)c(=O)o2)cc1
62.5

What does the record list as inhibition at 50 µM for COc1ccccc1N1CCN(c2cc(-c3cccs3)oc(=O)c2C#N)CC1 ?
71.2

Name the recorded inhibition at 50 µM for N#Cc1c(N2CCN(c3ccccc3Cl)CC2)cc(-c2ccccc2)oc1=O .
73.7

// lookup inhibition at 50 µM for COc1ccc(-c2cc(N3CCN(c4ccccc4O)CC3)c(C#N)c(=O)o2)cc1
84.4

Tell me the measured inhibition at 50 µM of N#Cc1c(N2CCN(c3ccccc3O)CC2)cc(-c2ccccc2)oc1=O , please.
95.7

Could you share which inhibition at 50 µM value was measured for N#Cc1c(N2CCN(c3ccccc3Cl)CC2)cc(-c2ccc(Br)cc2)oc1=O ?
68.5
